System: L6
Experimental Details: Cytotoxicity against rat L6 cells
Type: cell-based
log10(IC50) values by entry
Annotation: log10 of IC50, µM basis.

Notebook: COc1cc2c(cc1C(C)NC(=O)Cc1ccccc1)C=CC(C)(C)O2 (configuration not stated) , log10(IC50) read as 1.94

response.value for COc1cc2c(cc1C(C)NCc1ccccc1)C=CC(C)(C)O2 (configuration not stated) (field: log10(IC50)) = 1.32

Looking up COc1cc2c(cc1C(C)NCCCCc1ccccc1)CCC(C)(C)O2 (configuration not stated) , I found its log10(IC50) recorded as 0.72

Looking up COc1cc2c(cc1C(C)NCCCc1ccccc1)C=CC(C)(C)O2 (configuration not stated) , I found its log10(IC50) recorded as 0.03

Measured log10(IC50), COc1cc2c(cc1C(C)NCCCCc1ccccc1)C=CC(C)(C)O2 (configuration not stated) : 0.67

Measured log10(IC50) of COc1cc2c(cc1C(C)OCc1ccccc1)C=CC(C)(C)O2 (configuration not stated) : 1.64

For reference, reported log10(IC50) for COc1cc2c(cc1C(C)NCCc1ccccc1)C=CC(C)(C)O2 (configuration not stated) stands at 1.19

For reference, reported log10(IC50) for COc1cc2c(cc1C(C)NCCCc1ccccc1)CCC(C)(C)O2 (configuration not stated) stands at 0.42

Consider COc1cc2c(cc1C(C)NC(=O)/C=C/c1ccccc1)C=CC(C)(C)O2 (configuration not stated) . Its measured log10(IC50) is 2.03

Entry CCCCNC(C)c1cc2c(cc1OC)OC(C)(C)CC2 (configuration not stated) , log10(IC50) reported as 1.77

Record summary for C/C=C(/C)C(=O)OC(C)c1cc2c(cc1OC)OC(C)(C)C=C2 (configuration not stated) : reported log10(IC50) = 2.14

Entry CC(NCc1ccccc1)c1cc2c(cc1O)OC(C)(C)C=C2 (configuration not stated) , log10(IC50) reported as 2.04
